The reported numbers originate from the Biogen ADME set (Fang et al. 2023).

Conditions: pH 6.8
Response key: T means aqueous solubility >= 50 µg/mL; F means aqueous solubility < 50 µg/mL.

>>> assigned_class("O=C(C1CCCN(c2cnccn2)C1)N1CCc2ccccc2C1 (stereo not given)")
"T"
>>> assigned_class("O=C(CSc1ccc(F)cc1)N1CCCC1")
"F"
>>> assigned_class("CCC(=O)NCc1cc(C2CC2)n(C2CCCC2)n1")
"F"
>>> assigned_class("COc1nc(C#N)c(N2CCOCC2)o1")
"F"
>>> assigned_class("O=C1NCCN(C(=O)c2ccncc2)C1c1ccccc1Cl (stereo not given)")
"F"
>>> assigned_class("CN(Cc1ccc(N)nc1)c1ncccn1")
"F"
>>> assigned_class("Cc1ccc(C(=O)COC(=O)c2cc(O)nc3ccccc23)cc1")
"F"
>>> assigned_class("CNC(=O)c1ccc(CN(C)c2c(F)cc(C#N)cc2F)cc1")
"F"
>>> assigned_class("COCCNC(=O)CN1CCN(c2nccn2-c2cccc(Cl)c2)CC1")
"T"
>>> assigned_class("N#Cc1cccnc1NCCc1cn2c(n1)CCCC2")
"T"
>>> assigned_class("Cc1ccc(Cn2nc(C)c(C(N)=O)c2Cl)cc1")
"F"
>>> assigned_class("Cc1ccc(CNC(=O)c2cccs2)cn1")
"T"
>>> assigned_class("CN(Cc1ccccc1)C(=O)c1ccc(-n2cccn2)nc1")
"F"
>>> assigned_class("O=C(CSc1nc2nc(O)cc(O)c2s1)c1ccc(-c2ccccc2)cc1")
"F"
>>> assigned_class("CC(=O)N1CCN(c2ncc(-c3cc(C)no3)c([C@H]3CCCO3)n2)CC1")
"T"
>>> assigned_class("NC(=O)Cn1ccc(-c2ccccc2)n1")
"F"
>>> assigned_class("O=C(CCNc1ncccn1)N1CCc2ccccc2C1")
"F"
>>> assigned_class("CCc1noc(-c2ccc(CCN)cc2)n1")
"F"
>>> assigned_class("C[C@@H](c1ccc(F)cc1)n1nnc2cnc3ccc(-c4ccc5ocnc5c4)cc3c21")
"F"
>>> assigned_class("COC(=O)N1CCCN(C(=O)C(=O)Nc2cccc(C(C)C)c2)CC1")
"T"
>>> assigned_class("CN(C)Cc1cccc(N/C(=C2\\C(=O)Nc3cc(C(=O)N(C)C)ccc32)c2ccccc2)c1")
"T"
>>> assigned_class("CNC(=O)c1cccc(Cn2nnc(-c3ccccc3Cl)n2)c1")
"F"
>>> assigned_class("CN(CCC1CCCCC1)C(=O)c1ccon1")
"T"
>>> assigned_class("COc1cccc(-c2nc(-c3cccnc3)n[nH]2)c1")
"F"
>>> assigned_class("Cn1c(C(=O)N2CCN(CCc3ccccc3)C(=O)C2)cc(=O)n(C)c1=O")
"T"

* * *

Here, each record is paired with measured intrinsic clearance, human liver microsomes data.
outcome.measure: intrinsic clearance, human liver microsomes (mL/min/kg)

>>> reported_measurement("CN(Cc1cccc(Cl)c1Cl)Cc1cc(=O)n(C)c(=O)n1C")
191
>>> reported_measurement("COCC(=O)Nc1cccc(-n2cccc2)c1")
205
>>> reported_measurement("CN(C(=O)c1cncc(F)c1)c1cccc2ncccc12")
22.2
>>> reported_measurement("CC(C)N(C(=O)Cn1cccc2cc(-c3ccco3)nc1-2)C(C)C")
373
>>> reported_measurement("Clc1ccccc1CNCc1ccc2c(c1)OCCO2")
479
>>> reported_measurement("Cc1cc(C)n2ncc(C(=O)NC3CCCCC3)c2n1")
55.8
>>> reported_measurement("COc1cccc(O[C@H]2CCN(C(=O)c3cc(-c4ccc(F)cc4)on3)CC[C@@H]2O)c1")
66.3
>>> reported_measurement("COc1ccc(-c2nc(CC(N)=O)sc2C)cc1.Cl")
166
>>> reported_measurement("Cn1nc(CNC(=O)C2CCC2)c2ccccc21")
12.5
>>> reported_measurement("Cc1ccccc1OCCn1c(N)nc2ccccc21")
19.1
